pKi: −log10 of the molar value.
Listed below are compounds with pKi for 5-hydroxytryptamine receptor 2A (Homo sapiens), each taken from published literature.
Recorded Metric: pKi

a: Cc1cc(C(=O)Nc2ccc(C)c(N3CCN(C)CC3)c2)ccc1Br
b: Cc1ncccc1Oc1ccc(NC(=O)N2CCc3cc(I)ccc32)cn1
c: COc1ccccc1N1CCN(C/C=C/CNC(=O)c2ccc(-c3ccccn3)cc2)CC1
In: Order all 3 entries above by recorded pKi, highest first, lowest last. Please, when replying, give the labels in the order that was requested.
Out: c, a, b
(c: 7.12, a: 6.90, b: 5.80)

----------
Listed below are compounds with pKi for UniProtKB P28223, each taken from published literature.
pKi: −log10 of the molar value.
Recorded Metric: pKi

CC(C)(C)c1cc2c(cc1Cl)N(C(=O)Nc1cccnc1)CC2	6.20
Fc1ccc2c([C@@H]3CNCC[C@H]3F)c(C3CCCCC3)[nH]c2c1	9.60
CSc1cc2c(cc1OC(F)(F)F)N(C(=O)Nc1cccnc1)CC2	5.50
O=C(NCCC(F)CN1CCN(c2cccc(Cl)c2Cl)CC1)c1cc2ccccc2[nH]1 (stereo not given)	6.67

1: COc1ccc2[nH]cc(CCNCc3ccc(-c4ccc(Cl)cc4)o3)c2c1
2: O=C(NC[C@H]1C[C@@H]1CN1CCN(c2cccc(Cl)c2Cl)CC1)c1ccc(-c2ccccn2)cc1 (relative stereo)
3: O=C(NC1CCc2ccc(CCN3CCN(c4nsc5ccccc45)CC3)cc21)c1ccc(Cl)cc1 (stereo not given)
In: Number of compounds to sort: 3. Sort criterion: pKi, ascending. Please, when replying, give the labels in the order that was requested.
Out: 1, 2, 3
